- System: 786-0 renal
- assay: NCI-60 one-dose screen, 48 h
- testParameters: 10 µM unless noted
This is part of a sample that, as a whole, favours compounds with a hit. Of some 83,000 tested, about 20% had one in any assay. Activity calls are given as the source filed them. Rule for the calls: active = growth percent below 10; inactive = the rest.
Pick one: active, inactive

compound | system | labelValue
NS(=O)(=O)c1ccc(NC(=O)/C(=C\c2ccc(Cl)cc2Cl)NC(=O)c2ccccc2)cc1 | 786-0 renal | inactive

Query: In this assay, the call recorded for `COc1cc(OC)c(C(=O)C(CN(C)C)CN(C)C)cc1OC` was what?
Response: active

Query: In this assay, the call recorded for CCO/C=N/C1=C(C#N)C(c2ccc(F)cc2)c2sc3c(F)cccc3c2O1 (stereo not given) was what?
Response: inactive

Query: In this assay, the call recorded for `N=C(N)c1ccc(-c2ccc(-c3cc(Cl)cc(Cl)c3)s2)nc1` was what?
Response: inactive

Query: In this assay, the call recorded for `O=S(=O)(Oc1ccc(Br)cc1)c1ccc(Cl)cc1` was what?
Response: inactive

Query: In this assay, the call recorded for `COc1ccc(C(=O)N2c3ccccc3Sc3ccccc32)c(C(F)(F)F)c1` was what?
Response: inactive

Query: In this assay, the call recorded for CCN1C(=O)N(CC)C2C1NN=c1s/c(=C\c3ccc[nH]3)c(=O)n12 (stereo not given) was what?
Response: inactive

Query: In this assay, the call recorded for O=C(/C=C/C12c3ccccc3C(c3ccccc31)C1C(=O)NC(=O)C12)c1ccc(Br)cc1 (stereo not given) was what?
Response: inactive

Query: In this assay, the call recorded for `O=C(Cc1ccccc1)Nc1cccc(N=Cc2ccccc2O)c1` was what?
Response: inactive

Query: In this assay, the call recorded for `Cc1cn(-c2cc(NC(=O)c3cncc(C#Cc4c(N)ncc5ccc(F)cc45)c3)cc(C(F)(F)F)c2)cn1` was what?
Response: inactive

---

- Tested on: LOX IMVI melanoma
- assay: NCI-60 one-dose screen, 48 h (100 = growth as untreated, 0 = no growth, -100 = all killed)
- testParameters: 10 µM unless noted
Compounds without any hit were thinned out: in the full panel of roughly 83,000, 20% have a hit.
The threshold is 10%. Values of growth beneath it are tagged label 1; values meeting or exceeding it are tagged label 0.

Query: Consider `CCCCNC(=O)Oc1ccc(/C(=C(/C)Cc2ccc(OC)cc2)c2ccc(OCCN3CCCCCC3)cc2)cc1` . Does its growth lie strictly below 10%?
Response: label 0

---

- Tested on: SF-539 CNS
- assay: NCI-60 one-dose screen, 48 h
- testParameters: 10 µM unless noted
This is part of a sample that, as a whole, favours compounds with a hit. Of some 83,000 tested, about 20% had one in any assay. Activity calls are given as the source filed them. The calls were made as follows: active = growth percent below 10; inactive = the rest.
Pick one: yes (active), no (inactive)

compound | labelValue
C=C1C(=O)O[C@H]2[C@H]1CC/C(Cn1cc(CCC)nn1)=C\CC[C@@]1(C)O[C@@H]21 | yes
CC(C)(C)n1cc(-c2ccnc(NCCCNS(=O)(=O)c3ccc(C(F)(F)F)cc3)c2)c(-c2cccc(F)c2)n1 | no
CCOC(=O)C#Cc1c(C(=O)OCC)nnn1Cc1ccc(C(F)(F)F)cc1 | no
COC(=O)c1nc(-c2ccccc2)oc1S(=O)(=O)NCC(c1ccc(Cl)cc1)N1CCOCC1 (stereo unspecified) | no
CCOC(=O)c1c(C)nc2ccccc2c1/C=C/c1ccccc1 | no

Query: In this assay, the call recorded for CN(Cc1ccccc1)c1nc(Cl)c(C2CC(c3ccccc3)=NN2c2ccccc2)s1 (stereo unspecified) was what?
Response: no

Query: In this assay, the call recorded for `CNCc1cccc2c1OCCOCCOCCNS(=O)(=O)c1ccc(cc1)-c1cnc(N)c(n1)C(=O)N2` was what?
Response: yes

Query: In this assay, the call recorded for COc1ccc(CCN(CC(=O)N(CC(N)=O)C2CCC[C@@H]2OCc2ccccc2)C(=O)CN(C(=O)CN(CCc2ccc(Cl)cc2)C(=O)CN(C(=O)CN(C)Cc2ccccc2F)[C@H](C)C2CCCCC2)[C@H](C)C2CCCCC2)cc1OC (stereo partly specified) was what?
Response: no

Query: In this assay, the call recorded for `CCOC(=O)C1=C(C)C(Cl)=N/C1=C\c1[nH]c(Cl)c(C)c1C(=O)OCC` was what?
Response: no

Query: In this assay, the call recorded for `Cc1ccc(S(=O)(=O)N2CCC(=O)c3ccccc32)cc1` was what?
Response: no

Query: In this assay, the call recorded for `CCN(CC)CCN1C(=O)c2c(c(C)c3c(oc4ccc(O)cc43)c2C)C1=O` was what?
Response: yes
